Protein target, amino acids: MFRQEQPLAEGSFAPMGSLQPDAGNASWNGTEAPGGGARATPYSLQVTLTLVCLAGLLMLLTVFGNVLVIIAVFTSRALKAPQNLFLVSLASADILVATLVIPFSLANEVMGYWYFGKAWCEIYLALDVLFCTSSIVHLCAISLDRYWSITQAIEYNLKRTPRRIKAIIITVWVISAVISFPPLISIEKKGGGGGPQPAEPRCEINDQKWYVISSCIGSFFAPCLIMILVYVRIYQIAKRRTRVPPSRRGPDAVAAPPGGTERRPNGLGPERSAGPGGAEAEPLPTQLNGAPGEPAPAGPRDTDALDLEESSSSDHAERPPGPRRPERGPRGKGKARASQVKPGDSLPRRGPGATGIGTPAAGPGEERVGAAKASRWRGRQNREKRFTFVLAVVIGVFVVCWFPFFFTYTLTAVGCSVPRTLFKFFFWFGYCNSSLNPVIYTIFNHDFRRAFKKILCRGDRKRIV
Assay Endpoint: Ki (µM)

>>> print(df.to_string())
                      smiles_representation  assay_endpoint  unit_string  reported_result
0  CC1=C(C(=O)NCCCN2CCC(c3ccc(F)cc3C#N)CC2)[C@@H](c2ccc(F)c(F)c2)CC(=O)N1C              Ki           µM             4.52
1  CC1=C(C(=O)NCCCN2CCC(C#N)(c3ccc(F)cc3C#N)CC2)[C@@H](c2ccc(F)c(F)c2)CC(=O)N1C              Ki           µM             13.6
2  CC1=C(C(=O)NCCCN2CCC(c3ccc(F)cc3)CC2)[C@@H](c2ccc(F)c(F)c2)CC(=O)N1              Ki           µM            0.229

Every entry's value here was drawn from ChEMBL document CHEMBL1133242.
